study-system: human insulin receptor (CHO.IR cells) (Homo sapiens, UniProt P06213)
Construct: host or cells: CHO.IR cells (CHO)
Sequence (P06213 28-758 limits assumed): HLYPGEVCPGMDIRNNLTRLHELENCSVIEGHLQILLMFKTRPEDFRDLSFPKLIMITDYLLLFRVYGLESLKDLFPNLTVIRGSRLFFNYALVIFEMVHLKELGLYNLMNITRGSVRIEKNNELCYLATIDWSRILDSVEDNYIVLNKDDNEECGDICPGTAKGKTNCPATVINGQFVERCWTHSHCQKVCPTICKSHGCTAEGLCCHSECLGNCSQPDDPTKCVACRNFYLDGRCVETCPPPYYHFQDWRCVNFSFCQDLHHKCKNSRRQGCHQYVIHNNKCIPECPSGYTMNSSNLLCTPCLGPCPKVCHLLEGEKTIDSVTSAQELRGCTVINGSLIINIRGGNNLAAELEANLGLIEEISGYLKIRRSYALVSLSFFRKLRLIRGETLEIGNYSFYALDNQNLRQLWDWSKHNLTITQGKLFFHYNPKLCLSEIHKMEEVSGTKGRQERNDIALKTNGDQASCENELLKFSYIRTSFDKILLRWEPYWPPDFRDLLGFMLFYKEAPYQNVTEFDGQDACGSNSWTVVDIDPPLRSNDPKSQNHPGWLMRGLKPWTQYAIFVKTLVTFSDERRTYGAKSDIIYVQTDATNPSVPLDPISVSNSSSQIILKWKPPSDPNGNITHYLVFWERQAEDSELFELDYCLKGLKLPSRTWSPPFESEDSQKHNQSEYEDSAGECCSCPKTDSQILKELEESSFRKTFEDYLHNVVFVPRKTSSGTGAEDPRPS
Sequence (P06213 763-1382 limits assumed): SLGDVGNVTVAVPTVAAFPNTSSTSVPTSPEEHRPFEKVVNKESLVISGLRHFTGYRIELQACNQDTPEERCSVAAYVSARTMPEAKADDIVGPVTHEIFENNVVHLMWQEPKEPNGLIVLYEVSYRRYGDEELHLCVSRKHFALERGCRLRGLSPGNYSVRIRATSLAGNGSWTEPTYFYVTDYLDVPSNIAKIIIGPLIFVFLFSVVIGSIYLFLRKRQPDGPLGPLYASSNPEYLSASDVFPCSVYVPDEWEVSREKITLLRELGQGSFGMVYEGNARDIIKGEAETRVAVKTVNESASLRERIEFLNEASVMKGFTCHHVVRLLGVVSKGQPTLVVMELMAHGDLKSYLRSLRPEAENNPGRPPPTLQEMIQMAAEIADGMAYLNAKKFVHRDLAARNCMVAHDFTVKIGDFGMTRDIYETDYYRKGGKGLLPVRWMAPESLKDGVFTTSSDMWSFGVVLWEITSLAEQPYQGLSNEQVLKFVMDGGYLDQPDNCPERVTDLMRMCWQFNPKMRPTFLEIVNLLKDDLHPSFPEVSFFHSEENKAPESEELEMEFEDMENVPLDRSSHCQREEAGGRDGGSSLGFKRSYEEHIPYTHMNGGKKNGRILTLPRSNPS
protocol-details: Cell-based assay for insulin receptor tyrosine kinase activity
condition-context: 20 min; CHO.IR cells treated with 100 μM of compound; read-out: reduction in tyrosine kinase activity
reported-endpoint: inhibition at 100 µM

[[record]]
compound = "O=C(O)c1sc(C(=O)c2c[nH]c3c(CCCCCO)cccc23)c(O)c1-c1c[nH]c2ccccc12 [Compound 114]"
study_system = "human insulin receptor (CHO.IR cells) (Homo sapiens, UniProt P06213)"
data_value = "12 to 53%"

[[record]]
compound = "CCCCCc1cccc2c(C(=O)c3oc(C(=O)O)c(-c4c[nH]c5ccccc45)c3O)c[nH]c12 [Compound 171]"
study_system = "human insulin receptor (CHO.IR cells) (Homo sapiens, UniProt P06213)"
data_value = "12 to 53%"

[[record]]
compound = "O=C(O)c1oc(C(=O)c2c[nH]c3c(CCCCO)cccc23)c(O)c1-c1c[nH]c2ccccc12 [Compound 21]"
study_system = "human insulin receptor (CHO.IR cells) (Homo sapiens, UniProt P06213)"
data_value = "12 to 53%"

[[record]]
compound = "O=C(O)c1oc(C(=O)c2c[nH]c3c(CCCC(CO)CO)cccc23)c(O)c1-c1c[nH]c2ccccc12 [Compound 173]"
study_system = "human insulin receptor (CHO.IR cells) (Homo sapiens, UniProt P06213)"
data_value = "12 to 53%"

[[record]]
compound = "O=C(O)CCc1cccc2c(C(=O)c3oc(C(=O)O)c(-c4c[nH]c5ccccc45)c3O)c[nH]c12 [Compound 170]"
study_system = "human insulin receptor (CHO.IR cells) (Homo sapiens, UniProt P06213)"
data_value = "12 to 53%"

[[record]]
compound = "O=C(O)c1oc(C(=O)c2c[nH]c3c(CCCCCO)cccc23)c(O)c1-c1c[nH]c2ccccc12 [Compound 30]"
study_system = "human insulin receptor (CHO.IR cells) (Homo sapiens, UniProt P06213)"
data_value = "12 to 53%"

[[record]]
compound = "O=C(O)c1oc(C(=O)c2c[nH]c3c(CCCO)cccc23)c(O)c1-c1c[nH]c2ccccc12 [Compound 9]"
study_system = "human insulin receptor (CHO.IR cells) (Homo sapiens, UniProt P06213)"
data_value = "12 to 53%"

[[record]]
compound = "O=C(O)CCCCc1cccc2c(C(=O)c3oc(C(=O)O)c(-c4c[nH]c5ccccc45)c3O)c[nH]c12 [Compound 172]"
study_system = "human insulin receptor (CHO.IR cells) (Homo sapiens, UniProt P06213)"
data_value = "12 to 53%"

